protocolDescription: activity coefficient (dimensionless); of the first substance listed, at infinite dilution; xn = mol fraction of the nth substance listed
conditionSet: 318.15 K; 101.33 kPa; Liquid; Chromatography; x1 = 0
Doc: threshold 10 (exclusive). Items with activity coefficient beneath it return TRUE; others return FALSE.

[[record]]
compound = "CCCCCC [hexane] + CC[N+](C)(CC)CCOC.O=S(=O)([N-]S(=O)(=O)C(F)(F)F)C(F)(F)F"
discretelabel = "FALSE"

[[record]]
compound = "C=CCCCCCC [oct-1-ene] + CC[N+](C)(CC)CCOC.O=S(=O)([N-]S(=O)(=O)C(F)(F)F)C(F)(F)F"
discretelabel = "FALSE"

[[record]]
compound = "C1CCCCC1 [cyclohexane] + CC[N+](C)(CC)CCOC.O=S(=O)([N-]S(=O)(=O)C(F)(F)F)C(F)(F)F"
discretelabel = "FALSE"

[[record]]
compound = "c1ccccc1 [benzene] + CC[N+](C)(CC)CCOC.O=S(=O)([N-]S(=O)(=O)C(F)(F)F)C(F)(F)F"
discretelabel = "TRUE"

[[record]]
compound = "CCCC(=O)CC [3-hexanone] + CC[N+](C)(CC)CCOC.O=S(=O)([N-]S(=O)(=O)C(F)(F)F)C(F)(F)F"
discretelabel = "TRUE"

[[record]]
compound = "CC(C)OC(C)C [diisopropyl ether] + CC[N+](C)(CC)CCOC.O=S(=O)([N-]S(=O)(=O)C(F)(F)F)C(F)(F)F"
discretelabel = "TRUE"

[[record]]
compound = "CCCC(C)=O [pentan-2-one] + CC[N+](C)(CC)CCOC.O=S(=O)([N-]S(=O)(=O)C(F)(F)F)C(F)(F)F"
discretelabel = "TRUE"

